# test.details: total protein half-life in vivo (active degradation + dilution); higher = more stable protein
# measurement.conditions: wild type E. coli NCM3722; growth: C-lim chemostat; doubling time 3 h
endpoint.name: total protein half-life in vivo (h)
Give the quantity in h, number only.

>  <residue.string>
MPTKPPYPREAYIVTIEKGKPGQTVTWYQLRADHPKPDSLISEHPTAQEAMDAKKRYEDPDKE [P0AAN5]

>  <unit.text>
h

>  <total protein half-life in vivo>
3.69

$$$$

Could you now consider this next sequence?
Challenge: Which value of total protein half-life in vivo has been reported for `MRRTFIKKEGVVITTLARYLLGEKCGNRLKTIDELANECRSSVGLTQAALKTLESSGAIRIERRGRNGSYLVEMDNKALLTHVDINNVVCAMPLPYTRLYEGLASGLKAQFDGIPFYYAHMRGADIRVECLLNGVYDMAVVSRLAAESYLTQKGLCLALELGPHTYVGEHQLICRKGESANVKRVGLDNRSADQKIMTDVFFGGSDVERVDLSYHESLQRIVKGDVDAVIWNVVAENELTMLGLEATPLTDDPRFLQATEAVVLTRVDDYPMQQLLRAVVDKHALLAHQQRVVSGEQEPSY` in the records?
Response given: 2.78

Source listed as the supplement of paper PMC11246515.
